# experimentDescription: MRT (0 to t) in male Sprague-Dawley rat at 10 mg/kg, po measured up to 24 hrs by LC-MS/MS analysis
# Type: ADME, organism-based
# conditionNotes: in vivo
valueKind: MRT last at 24 h (h)
Numbers only, in h.

Entry under review: O=C(Nc1cc(Cl)cc(Cl)c1)c1nc(-c2cccc(Cl)c2)cs1 . Reported MRT last at 24 h?
2.32

* * *

# Species on record: Homo sapiens
# experimentDescription: Selectivity index, ratio of IC50 for human recombinant CYP1A1 to IC50 for human recombinant CYP1B1 using 7-ethoxyresorufin as substrate
valueKind: Ratio IC50

COc1cc(Cl)cc(NC(=O)c2nc(-c3ccccc3)cs2)c1: 13.3
O=C(Nc1ccc(I)cc1)c1nc(-c2ccc(F)cc2)cs1: 31.9
O=C(Nc1ccc(-n2ccnc2)cc1)c1nc(-c2ccccc2)cs1: 7.2

Here are 2 compounds. What values of Ratio IC50 were reported for them?
1. NC(=O)c1ccc(-c2csc(C(=O)Nc3ccc(C(F)(F)F)cc3)n2)cc1
2. O=C(Nc1ccc(F)cc1)c1nc(-c2ccccc2)cs1

1. 170
2. 11.7
